Value source: paper PMC4603705

- Test system: E. coli ATTC 8739
- Assay type: cell-based, Escherichia coli
- protocolConditions: ATTC 8739
Bridge positions count the residues as written; N and C are the ends. Square brackets hold non-standard residues; d marks the D form. Peptide text beside a SMILES is read from it. * marks the point of attachment. Decanoyl = CCCCCCCCCC(=O)*; Nonanoyl = CCCCCCCCC(=O)*; Dab = NCC[C@H](N)C(=O)O
measurementName: MIC E. coli (µg/mL)

molecule: CCCCCCCCC(=O)N[C@@H](CCCNC(=N)N)C(=O)N[C@H](C(=O)N[C@@H](CCN)C(=O)N[C@H]1CSSC[C@H](C(N)=O)NC(=O)[C@H](CCN)NC(=O)[C@H](CCCNC(=N)N)NC(=O)[C@H](CC(C)C)NC(=O)[C@@H](Cc2ccccc2)NC(=O)[C@H](CCN)NC1=O)[C@@H](C)O [Analog 13] (Nonanoyl-RT[Dab]C[Dab][dF]LR[Dab][dC]-NH2; disulfide 4-10)
readoutValue: 4
//
molecule: CCCCCCCCC(=O)N[C@@H](CCN)C(=O)N[C@H](C(=O)N[C@@H](CCCNC(=N)N)C(=O)N[C@H]1CSSC[C@@H](C(N)=O)NC(=O)[C@H](CCN)NC(=O)[C@H](CCN)NC(=O)[C@H](CC(C)C)NC(=O)[C@@H](Cc2ccccc2)NC(=O)[C@H](CCN)NC1=O)[C@@H](C)O [Analog 3] (Nonanoyl-[Dab]TRC[Dab][dF]L[Dab][Dab]C-NH2; disulfide 4-10)
readoutValue: 8
//
molecule: CCCCCCCCCC(=O)N[C@@H](CCCNC(=N)N)C(=O)N[C@H](C(=O)N[C@@H](CCN)C(=O)N[C@H]1CSSC[C@@H](C(N)=O)NC(=O)[C@H](CCN)NC(=O)[C@H](CCCNC(=N)N)NC(=O)[C@H](CC(C)C)NC(=O)[C@@H](Cc2ccccc2)NC(=O)[C@H](CCN)NC1=O)[C@@H](C)O [Analog 36] (Decanoyl-RT[Dab]C[Dab][dF]LR[Dab]C-NH2; disulfide 4-10)
readoutValue: 8
